- Test system: MDA-MB-231 breast
- testDescription: NCI-60 one-dose screen, 48 h (100 = growth as untreated, 0 = no growth, -100 = all killed)
- testConditions: 10 µM unless noted
The panel holds about 83,000 compounds, 20% with a hit somewhere; the sample as a whole holds those more often.
Please use True for growth under 70% and False for everything else, ties included.

These recorded examples may help you get a feel for the data.
hey, is growth for Cc1cc(N2CCCCC2)nc(NCc2cc(Nc3ccnc4cc(Cl)ccc34)ccc2F)n1 lower than 70% or not?
True

Here is the next molecule: COc1ccc2c(c1)oc1c(C)c3c(c(C)c12)C(=O)N(Nc1ccccc1)C3=O
False

// repeat for COc1cc(-c2[nH]ncc2Nc2ccc(Cl)cc2)cc(OC)c1OC and report
True

Note, next up: CON1CCC[C@]2(C)[C@H]3CC[C@@H]4[C@H]5[C@@H](O)C(C)(C)CC[C@]5(CO)CC[C@@]4(C)[C@]3(C)CC[C@H]2C1(C)C
False

One more molecule: Cc1nc2sc(C(=O)Nc3cccc(Cl)c3C)c(N)c2cc1C(O)c1ccccc1 (configuration not stated)
True

***
Find out if reported growth for N#C/C(=N\Nc1ccc(Cl)cc1)C(=O)Nc1cc(-c2ccccc2)nn1-c1ccccc1 is less than 70%
True

Consider next the molecule COC(=O)/C=C1/SC(N2N=C(c3cccs3)CC2c2ccc(F)cc2)=NC1=O (configuration not stated) in the same way.
True

Next: Nc1nc(N)c2c(n1)NC(c1ccc(Cl)cc1)CC(c1cccc(Nc3ccncc3)c1)=N2 (configuration not stated)
True

Next molecule up: CCN(CC)CC(=O)Nc1ccc2ncnc(Nc3ccc(Oc4cccc(F)c4)c(Cl)c3)c2c1
True

Could you do the same for O=C1/C(=C/c2ccc(-c3ccccc3C(F)(F)F)o2)SC(=S)N1CCc1ccc(O)cc1 , please?
True

Thanks! And COc1cc(-c2nc(SCCC(C)C)nc(Nc3ccc(F)cc3)c2C#N)cc(OC)c1OC ?
True

Next molecule: O=C(c1cccc(Br)c1)N1CCN(c2ccnc3cc(Cl)ccc23)CC1
False

Also Cc1ccc2[nH]c(=S)[nH]c(=O)c2c1 ?
False

Try CN1CCN(C(=O)OCc2nc3c(N4CCOCC4)nc(Cl)nc3n2C)CC1 next.
True

Also, COc1ccc(-c2cc(-c3cccc(Cl)c3)c(C#N)c(=O)[nH]2)c(OC)c1 please.
False

Next record, please: CCN(c1cc(-c2ccc(CN3CCC(/C=C/S(=O)(=O)c4ccccc4)CC3)cc2)cc(C(=O)NCc2c(C)cc(C)[nH]c2=O)c1C)C1CCOCC1
True

# repeat for NC(N)=NC(N)=NCCCc1ccco1
False

Same question, CN1CCN(c2ccc(/C=C/C(=O)c3ccc(O)cc3)cc2)CC1 this time
False

Input CC(=O)c1c(C)nc(SCC(=O)Nc2ccc(Cl)cc2)n1-c1ccc(Cl)cc1
False

Now give it for Fc1ccccc1-c1cnn2cc(-c3ccccc3)cnc12 too.
False

And the next one, CCN1CCN(C(=O)[C@]23CC[C@@H](C)[C@H](C)[C@@H]2C2=CC[C@@H]4[C@@]5(C)CCC(=O)C(C)(C)[C@@H]5CC[C@@]4(C)[C@]2(C)CC3)CC1 ?
True

* * *

- Test system: SW-620 colon
- testDescription: NCI-60 one-dose screen, 48 h (100 = growth as untreated, 0 = no growth, -100 = all killed)
- testConditions: 10 µM unless noted
The panel holds about 83,000 compounds, 20% with a hit somewhere; the sample as a whole holds those more often.
measuredProperty: growth (%)
Write the answer as a number in %, unit excluded.

Please look up its growth: O=C(Cn1cc(CN2CCN(c3ccnc4cc(Cl)ccc34)CC2)nn1)Nc1cccc([N+](=O)[O-])c1
95

Same again, this time with COC(=O)/C=C1/SC(N2N=C(c3cccs3)CC2c2ccc(F)cc2)=NC1=O (centres undefined)
3.45

CC(=O)N1N=C(c2ccc(F)cc2)CC1c1sc(N(C)Cc2ccccc2)nc1Cl (centres undefined) ?
99.4

Next molecule up: COc1ccc2c(c1)oc1c(C)c3c(c(C)c12)C(=O)N(Nc1ccccc1)C3=O
110

Continue with CCCc1cc(C(N)=S)ccn1
107

Next:
Report growth for Cn1cc2c(=O)nc3c(-c4nc5ccccc5[nH]4)n[nH]n3c2n1 please.
97.2
